Source: ChEMBL document CHEMBL3286247

Could you please report measured MIC for the items listed next?
Test system: Pseudomonas aeruginosa
ASSAY NOTES: Antibacterial activity against Pseudomonas aeruginosa YY165 deltamexB mutant assessed as growth inhibition after 20 hrs by microdilution method
Assay type: functional
CONDITION DETAILS: YY165, 20 h

IN: Query for Pseudomonas aeruginosa: what MIC does the record show for C[C@@H](O)[C@H]1C(=O)N2C(C(=O)O)=C(S[C@@H]3CN[C@H](CNS(N)(=O)=O)C3)[C@H](C)[C@H]12 ?
OUT: 0.25 µg/mL

IN: Which measured MIC belongs to CCCCCCCCCCCCCCC[C@H](NC(=O)c1ccccn1)C(=O)NCCCN[C@H](C(=O)O)[C@H](O[C@@H]1O[C@H](CN)[C@@H](O)[C@H]1O)[C@H]1O[C@@H](n2ccc(=O)[nH]c2=O)[C@H](O)[C@@H]1O , tested on Pseudomonas aeruginosa?
OUT: > 64 µg/mL

IN: Recall the recorded MIC for CCCCCCCCCCCCCCC[C@H](NC(=O)[C@H](CCCNC(=N)N)NC(=O)N[C@H](C(=O)O)C(C)C)C(=O)NCCCN[C@H](C(=O)O)[C@H](O[C@@H]1O[C@H](CN)[C@@H](O)[C@H]1O)[C@H]1O[C@@H](n2ccc(=O)[nH]c2=O)[C@H](O)[C@@H]1O with Pseudomonas aeruginosa and state it.
OUT: > 64 µg/mL

IN: Give MIC (Pseudomonas aeruginosa) of the following molecule: CCCCCCCCCCCCCCC[C@H](NC(=O)c1ccc2ccccc2n1)C(=O)NCCCN[C@H](C(=O)O)[C@H](O[C@@H]1O[C@H](CN)[C@@H](O)[C@H]1O)[C@H]1O[C@@H](n2ccc(=O)[nH]c2=O)[C@H](O)[C@@H]1O
OUT: > 64 µg/mL

IN: API: value(readout=MIC, system=Pseudomonas aeruginosa) for record CCCCCCCCCCCCCCC[C@H](NC(=O)[C@@H](NC(=O)N[C@H](C(=O)O)C(C)C)[C@@H]1CCNC(=N)N1)C(=O)NCCCN[C@H](C(=O)O)[C@H](O[C@@H]1O[C@H](CN)[C@@H](O)[C@H]1O)[C@H]1O[C@@H](n2ccc(=O)[nH]c2=O)[C@H](O)[C@@H]1O
OUT: > 64 µg/mL

IN: Short answer please: MIC, Pseudomonas aeruginosa, entry CC(C)C[C@H](NC(=O)[C@@H](NC(=O)N[C@H](C(=O)O)C(C)C)[C@@H]1CCNC(=N)N1)C(=O)NCCCN[C@H](C(=O)O)[C@H](O[C@@H]1O[C@H](CN)[C@@H](O)[C@H]1O)[C@H]1O[C@@H](n2ccc(=O)[nH]c2=O)[C@H](O)[C@@H]1O [MURAMYCIN D2]
OUT: 64 µg/mL

IN: Lab note: need MIC for CCCCCCCCCCCCCCC[C@H](NC(=O)[C@@H](NC(=O)OCc1ccccc1)[C@@H]1CCNC(=N)N1)C(=O)NCCCN[C@H](C(=O)O)[C@H](O[C@@H]1O[C@H](CN)[C@@H](O)[C@H]1O)[C@H]1O[C@@H](n2ccc(=O)[nH]c2=O)[C@H](O)[C@@H]1O on Pseudomonas aeruginosa, anyone have it?
OUT: > 64 µg/mL

IN: Request: MIC, test system Pseudomonas aeruginosa, entry CCCCCCCCCCCCCCC[C@H](NC(=O)[C@@H](N)CCCNC(=N)N)C(=O)NCCCN[C@H](C(=O)O)[C@H](O[C@@H]1O[C@H](CN)[C@@H](O)[C@H]1O)[C@H]1O[C@@H](n2ccc(=O)[nH]c2=O)[C@H](O)[C@@H]1O
OUT: 8 µg/mL
